Target: HLA-B*53:01
Test: IEDB peptide-MHC binding, purified MHC/competitive/radioactivity; bounds were set here for any values at or beyond the usual limits of such assays
Settings: source organism: Bordetella pertussis
// boundary case: IC50 equal to 50 µM maps to NO; strictly smaller maps to YES

{"columns": ["sequenceInput", "className"],
 "data": [
  ["LSAALGADW", "YES"]
]}

Ask | Does this sequence meet the criterion IC50 < 50 µM? `VSGGSLSAP`
Reply | NO

Ask | Does this sequence meet the criterion IC50 < 50 µM? `VGAGGYEAG`
Reply | NO

---

Molecular target: HLA-B*53:01
Experiment: IEDB peptide-MHC binding, purified MHC/competitive/radioactivity; bounds were set here for any values at or beyond the usual limits of such assays
Conditions: source organism: Bordetella pertussis
Can you tell me pIC50 for the items I'm about to list?
Answers are plain numbers, as −log10 of the molar value.

Each sequence below has a recorded value; state its pIC50.
1. YAEHGEVSI
2. ASSPDAHVP
3. TVVQRNKHW
4. FIYRETFCI

Reply |
1. 4.94
2. 4.28
3. 4.16
4. 5.18
